Values from ChEMBL document CHEMBL1201861

System: OVCAR-8;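 note: growth inhibition of human OVCAR-8 cells, read out by a cell viability assay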
Experiment: cells
Format: functional, cell-based, Homo sapiens
Settings: Homo sapiens, OVCAR-8
Description: SANGER: Inhibition of human OVCAR-8 cell growth in a cell viability assay.
Provide the reported IC50 of each item.

These solved cases illustrate the format of a correct answer.
Ask | Looking for the measured IC50 of `N#Cc1c(O)c2c(-c3ccc(-c4ccccc4O)cc3)csc2[nH]c1=O` , can you help?
Reply | > 1.02 µM

Ask | Looking for the measured IC50 of Cc1cn(-c2cc(NC(=O)c3ccc(C)c(Nc4nccc(-c5cccnc5)n4)c3)cc(C(F)(F)F)c2)cn1 [NILOTINIB] , can you help?
Reply | > 2 µM

Ask | Looking for the measured IC50 of CN(C)C(=N)NC(=N)N [METFORMIN] , can you help?
Reply | > 20000 µM

Please turn your attention to the following entry.
Ask | Looking for the measured IC50 of CC1(C)CNc2cc(NC(=O)c3cccnc3NCc3ccncc3)ccc21 [MOTESANIB] , can you help?
Reply | > 2 µM

====

Provide the reported pIC50 of each item.
Tested on: NCI-H510A;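 note: growth inhibition of NCI-H510A cells, read out with a cell viability assay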
Assay: cells
Type: functional, cell-based, Homo sapiens
Conditions: Homo sapiens, NCI-H510A
Description: SANGER: Inhibition of human NCI-H510A cell growth in a cell viability assay.
pIC50: −log10 of the molar value.

Ask | Looking for the measured pIC50 of `O=C(O)c1ccc(-c2c[nH]c3ncc(-c4ccccc4)cc23)cc1C1CCCC1` , can you help?
Reply | < 4.80

Batch request: pIC50 for each of the following molecules.
1. COc1cc(N2CCN(C)CC2)ccc1Nc1ncc2c(n1)N(C)c1ccccc1C(=O)N2C
2. Oc1ccc2ccccc2c1SSc1c(O)ccc2ccccc12

Reply |
< 5.10
< 4.49

====

Tested on: CAL-33
Assay: cells
Assay type: functional, cell-based, Homo sapiens
Conditions: Homo sapiens, CAL-33
Description: SANGER: Inhibition of human CAL-33 cell growth in a cell viability assay.
Provide the reported IC50 of each item.

These solved cases illustrate the format of a correct answer.
Ask | Looking for the measured IC50 of `N#Cc1c(O)c2c(-c3ccc(-c4ccccc4O)cc3)csc2[nH]c1=O` , can you help?
Reply | > 1020 nM

Ask | Looking for the measured IC50 of `CC1(C)CNc2cc(NC(=O)c3cccnc3NCc3ccncc3)ccc21` , can you help?
Reply | > 2000 nM

Please turn your attention to the following entry.
Ask | Looking for the measured IC50 of Nc1cccc2c1CN(C1CCC(=O)NC1=O)C2=O (stereo not drawn) [LENALIDOMIDE] , can you help?
Reply | > 5000 nM

====

Tested on: RL95-2;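 note: RL95-2 growth inhibition determined through a cell viability readout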
Assay: cells
Assay type: functional, cell-based
Conditions: Homo sapiens
Description: SANGER: Inhibition of human RL95-2 cell growth in a cell viability assay.
reportedProperty: IC50

These solved cases illustrate the format of a correct answer.
Ask | Looking for the measured IC50 of `CC[C@H](CO)Nc1nc(NCc2ccccc2)c2ncn(C(C)C)c2n1` , can you help?
Reply | > 16 µM

Ask | Looking for the measured IC50 of COc1cc2ncn(-c3cc(OCc4ccccc4S(C)(=O)=O)c(C#N)s3)c2cc1OC [GSK-319347A] , can you help?
Reply | > 5 µM

Ask | Looking for the measured IC50 of `COc1cc(N2CCN(C)CC2)ccc1Nc1ncc2c(n1)N(C)c1ccccc1C(=O)N2C` , can you help?
Reply | > 8 µM

Please turn your attention to the following entry.
Ask | Looking for the measured IC50 of `Cc1ccc(-c2c(C(=O)CCl)n(CCCO)c3ncnc(N)c23)cc1` , can you help?
Reply | > 4 µM

====

Tested on: GDM-1;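 note: cell viability readout used to measure growth inhibition of human GDM-1 cells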
Assay: cells
Type: functional, cell-based, Homo sapiens
Conditions: Homo sapiens, GDM-1
Description: SANGER: Inhibition of human GDM-1 cell growth in a cell viability assay.
pIC50: −log10 of the molar value.
Provide the reported pIC50 of each item.

These solved cases illustrate the format of a correct answer.
Ask | What is its pIC50 for GDM-1? Entry: `CCN(CC)CCNC(=O)c1c(C)[nH]c(/C=C2\C(=O)Nc3ccc(F)cc32)c1C`
Reply | < 5.10

Ask | What is its pIC50 for GDM-1? Entry: `C#Cc1cccc(Nc2ncnc3cc(OCCOC)c(OCCOC)cc23)c1`
Reply | < 5.70

Please turn your attention to the following entry.
Ask | What is its pIC50 for GDM-1? Entry: `COc1cc(-c2nn([C@H]3CC[C@H](N4CCN(C(C)=O)CC4)CC3)c3ncnc(N)c23)ccc1NC(=O)c1cc2ccccc2n1C`
Reply | < 5.29
